reported_property: melting point

According to the records, this molecule CC1(C)Cc2sccc2C1N=CNC#N (stereo not drawn) displays melting point of 118 to 119 °C

molecule `CC(C)C(C)(C)[Si](C)(C)Oc1ccc2c(c1)c(I)c1n2CCC1` , melting point observed: 97 to 98 °C

Please fill in: melting point reported for `CCN1CC(=O)N(C)c2cc([N+](=O)[O-])c(OC)cc2C1` = 129 to 131 °C

// field: melting point; key: `C[C@@H]1N(C(=O)OC(C)(C)C)C(=O)C[C@]1(C)O` ; value = 122 to 125 °C

molecule `COC(=O)c1cc2cccc(OC)c2cc1O` , melting point observed: 182 °C

Value of melting point reported for the molecule `Cn1nnnc1-c1cn(C)c2cc(F)ccc2c1=O` is 264 to 267 °C

So, `O=C1Cc2cc3c(cc2C(c2ccco2)=NN1)OCO3` ? Its melting point was 234 to 236 °C

Consider Cc1ccccc1-c1cc(C#N)cc2c1OC(CN)C2 (stereo not drawn) . Its measured melting point is 127 to 129 °C

Value of measured melting point for the entry `Cn1ncc(C(=O)O)c1C(=O)Nc1ccn2nc(-c3cccnc3)nc2c1` : > 250 °C

For COc1ccc(S(=O)(=O)N2Cc3ccccc3N(C(=O)c3ccc(-n4ccc(C)n4)cc3Cl)CC2C(=O)NO)cc1 (stereo not drawn) the molecule record lists melting point as 189 to 191 °C

Kindly note the recorded melting point for CCOC(=O)c1cc(NC(=O)C(Cc2cscn2)NC(=O)OC(C)(C)C)c[nH]1 (stereo not drawn) , which is 217 to 220 °C

Query `O=C(CCc1ccc2ccccc2c1)CC(=O)CCc1ccc2ccccc2c1` yields melting point of 123 to 125 °C

Lookup result for `CCOCc1nc2c(N)nc3cc(-c4cccnc4)ccc3c2n1CC(C)C` ; measured melting point: 180 to 182 °C

Field melting point (entry CCC(C(CC(=O)OC)c1ccc(Cl)cc1Cl)[N+](=O)[O-] (stereo not drawn) ) reads 234 to 237 °C

The molecule identified as CCCCCCC(C)(C)c1cc(O)c2c(c1)OC(C)(C)CC2C(=O)O (stereo not drawn) registered its melting point at 147 to 148 °C

Input COc1ccc2c(c1)C13CCN(C)C(C2)C1C(C)C(C)C(=O)C3 (stereo not drawn) . Output melting point: 101 to 102 °C

Record Cc1cc(C)cc(C(=O)N2CCC(N3CCC(NCCc4ccccc4)CC3)CC2Cc2ccccc2)c1 (stereo not drawn) , field melting point: 67.8 °C

Entry `Cc1cnc(NCCCNc2ncc(Cc3ccc(C)nc3)c(=O)[nH]2)c(C)c1` , melting point reported as 104 to 105 °C
